# target-or-test-system: Serine/threonine-protein kinase MRCK beta (Homo sapiens);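 note: averaged inhibition values against MRCK beta, part of the GSK PKIS profiling dataset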
# test-context: at 1 µM
observation-type: inhibition (%)
// units = %; emit number, no label

[in] # get_value(readout='inhibition', item= Cc1ccc2c(-c3ccnc(Nc4ccc5c(c4)OCCO5)n3)c(-c3ccc(C(F)(F)F)cc3)nn2n1 )
[out] 0.96

[in] Reported inhibition, compound COc1ccc(-c2nn3ncccc3c2-c2ccnc(Nc3cccc(C(F)(F)F)c3)n2)cc1 : ____
[out] -0.13

[in] For the compound CCOc1nccc2c1nc(-c1nonc1N)n2CC , what inhibition is on record?
[out] 2.92

[in] Which inhibition value is on record for O=S(=O)(CCOCc1ccc(-c2ccc3ncnc(Nc4ccc(OCc5cccc(F)c5)c(Cl)c4)c3c2)o1)c1ccccc1 ?
[out] 1.18

[in] Reported inhibition for C[C@@H](Oc1cc(-n2cnc3ccc(OC[C@@H](O)CO)cc32)sc1C(N)=O)c1ccccc1Cl : what is it?
[out] 3.59

[in] Report inhibition for NC(=O)c1cccc(Nc2nccc(Nc3cccc(F)c3)n2)c1 please.
[out] 1.43

[in] Would you kindly share the measured inhibition for COC(=O)Nc1nc2cc(Oc3ccc(NC(=O)Nc4cccc(Br)c4)cc3)ccc2[nH]1 ?
[out] -0.22

[in] Entry under review: Nc1ccc(C#Cc2cncnc2Nc2ccc(OCc3cccc(F)c3)c(Cl)c2)cc1 . Reported inhibition?
[out] 1.18

[in] I would be grateful if you could share the reported inhibition for Cc1ccc(C(=O)NC2CC2)cc1-c1ccc2[nH]ncc2c1 .
[out] 5.75

[in] # get_value(readout='inhibition', item= O=C1Nc2ccccc2/C1=C/Nc1ccc2[nH]c(=O)[nH]c2c1 )
[out] -1.04

[in] Quick check: inhibition of CCS(=O)(=O)c1ccc(OC)c(Nc2nccc(N(C)c3ccc4c(C)n[nH]c4c3)n2)c1 ?
[out] 0.83

[in] Query: inhibition; subject: Cc1cc(Cl)cc2c1NC(=O)C2=NNc1ccc(S(N)(=O)=O)cc1
[out] -0.38

[in] What value of measured inhibition is listed for Cc1ccc(NC(=O)CC2CC2)cc1-c1ccc(C(=O)NCC2CC2)cc1 ?
[out] 0.45

[in] GET /values?readout=inhibition&item= COc1ccc2ncnc(Nc3ccc(OCc4ccccc4)cc3)c2c1
[out] 0.8

[in] May I ask what inhibition has been recorded for CN(C)C(=O)O[C@H]1CN[C@H](C#Cc2cc3ncnc(Nc4ccc(OCc5cccc(F)c5)c(Cl)c4)c3s2)C1 ?
[out] 2.77

[in] Which inhibition value belongs to NS(=O)(=O)c1ccc(N/N=C2\C(=O)Nc3ccc(Cl)cc32)cc1 ?
[out] 0.67

[in] # get_value(readout='inhibition', item= CN(C)C(=O)O[C@@H]1CN[C@@H](C#Cc2cc3ncnc(Nc4ccc(OCc5cccc(F)c5)c(Cl)c4)c3s2)C1 )
[out] 0.85

[in] Dear colleague, I am looking for the recorded inhibition of the following compound: CCn1c(-c2nonc2N)nc2ccc(F)cc21
[out] 1.2

[in] // lookup inhibition for COc1cc2ncnc(Nc3ccc(C)c(O)c3)c2cc1OC
[out] 0.25

[in] Look up inhibition: COc1cccc(-n2ncc3c(N/N=C/c4ccc(C)cc4)ncnc32)c1
[out] 1.73

* * *

# target-or-test-system: Ribosomal protein S6 kinase alpha-5 (Homo sapiens);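 note: mean inhibition of MSK1, from screening of the GSK PKIS inhibitor set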
# test-context: at 1 µM
Assignment: determine reported inhibition for the given compounds.
API: value field is a number in %; no unit string.

[in] Which inhibition reading was recorded for the compound O=C(Nc1ccc(Oc2ccc3[nH]c(NC(=O)c4ccco4)nc3c2)cc1)Nc1cc(C(F)(F)F)ccc1F ?
[out] 1.79

[in] # query: inhibition of entry Oc1cccc(-c2nc(-c3ccccc3)[nH]c2-c2ccncc2)c1
[out] 4.64

[in] # inhibition lookup, item c1ccc(Cc2nc3ccc(Nc4ncnc5ccccc45)cc3[nH]2)cc1
[out] 4.26

[in] Entry O=S(=O)(CCOCc1ccc(-c2ccc3ncnc(Nc4ccc(OCc5cccc(F)c5)c(Cl)c4)c3c2)o1)c1ccccc1 : reported inhibition = ?
[out] 0.85

[in] Field request: inhibition | item: CN(C)C(=O)O[C@H]1CN[C@H](C#Cc2cc3ncnc(Nc4ccc(OCc5cccc(F)c5)c(Cl)c4)c3s2)C1
[out] 4.95

[in] // returns reported inhibition for input NS(=O)(=O)c1ccc(NC=C2C(=O)Nc3ccc4ncsc4c32)cc1
[out] 23.1

[in] Value lookup for inhibition; key = COc1cccc(-n2ncc3c(N/N=C/c4ccc(S(C)(=O)=O)cc4)ncnc32)c1
[out] -0.55

[in] Would you mind telling me what inhibition value was observed for COc1ccc2ncnc(Nc3ccc(OCc4ccccc4)cc3)c2c1 ?
[out] 0.63

[in] Would you mind telling me what inhibition value was observed for COc1cccc(-n2ncc3c(N/N=C/c4ccc(C)cc4)ncnc32)c1 ?
[out] -2.7

[in] What does the record list as inhibition for COC(=O)c1cncc(/C=C/c2c(C)cc(O)cc2C)c1 ?
[out] 4.33

* * *

I'd appreciate it if you could supply inhibition values for the items below.
# target-or-test-system: Serine/threonine-protein kinase pim-3 (Homo sapiens);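 note: mean inhibition of PIM3 kinase activity, recorded in the GSK_PKIS screening set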
# test-context: at 0.1 µM
Write the number in % without appending the unit.

[in] Please report the recorded inhibition for c1ccc(Cc2nc3ccc(Nc4ncnc5ccccc45)cc3[nH]2)cc1 .
[out] 0.69

[in] Quick one: inhibition of Cc1ccc(Nc2ccnc(Nc3cccc(C(N)=O)c3)n2)cc1O ?
[out] 0.18

[in] So what's the measured inhibition for this one? Cc1ccc2c(-c3ccnc(Nc4cccc(C(F)(F)F)c4)n3)c(-c3ccccc3)nn2n1
[out] 0.5

[in] I have this compound here, CN(C)CCCn1c(-c2nonc2N)nc2cnccc21 , and I need its recorded inhibition.
[out] -0.78

[in] Which inhibition is reported for this compound? C[C@@H](Oc1cc(-n2cnc3ccc(OCC4CCN(C)CC4)cc32)sc1C(N)=O)c1ccccc1C(F)(F)F
[out] 8.51

[in] Quick check: inhibition of COc1ccc(-c2nn3ncccc3c2-c2ccnc(Nc3cccc(C(F)(F)F)c3)n2)cc1 ?
[out] -0.01

[in] I would be grateful if you could share the reported inhibition for CN(c1ccc(NC(=O)Nc2ccc(OC(F)(F)F)cc2)cc1)c1ccnc(Nc2cccc(S(N)(=O)=O)c2)n1 .
[out] 0.72

[in] Recorded inhibition of Cc1ccc2c(-c3ccnc(Nc4ccc5c(c4)OCCO5)n3)c(-c3ccc(C(F)(F)F)cc3)nn2n1 , please.
[out] 0.32

[in] # inhibition lookup, item COc1cc2ncnc(Nc3ccc4c(cnn4Cc4ccccc4)c3)c2cc1OC
[out] -0.75

[in] Quick one: inhibition for Oc1cccc(-c2nc(-c3ccccc3)[nH]c2-c2ccncc2)c1 ?
[out] -1.73

[in] // inhibition lookup, key: Cc1ccc2c(c1)/C(=N/Nc1ccc(S(N)(=O)=O)cc1)C(=O)N2
[out] -0.58

[in] I'd like to know its inhibition. The compound in question is Cc1ccc(O)cc1Nc1ccnc2ccc(S(C)(=O)=O)cc12
[out] 0.69

[in] # get_value(readout='inhibition', item= CC(C)c1ccc2c(c1)NC(=O)/C2=N/Nc1ccc(S(N)(=O)=O)cc1 )
[out] 2.03

[in] Entry CC(C)c1ccc(Nc2nccc(-c3cnn4ncccc34)n2)cc1 has what inhibition?
[out] 0.51

[in] Value lookup for inhibition; key = Cc1cc(-c2ccccn2)cc(C)c1/C=C/c1cncc(-c2nn[nH]n2)c1
[out] 1.13

[in] Which inhibition is reported for this compound? CS(=O)(=O)Nc1cccc(-c2ccc3c(NC(=O)C4CC4)n[nH]c3c2)c1
[out] -0.62

[in] Quick one: inhibition of CCOc1nccc2c1nc(-c1nonc1N)n2CC ?
[out] 3.33

[in] Given the compound COc1cccc(-n2nc(C)c3c(N/N=C(\C)c4ccncc4)ncnc32)c1 , what is its reported inhibition?
[out] -0.59

[in] Look up inhibition: COC(=O)c1cncc(/C=C/c2c(C)cc(O)cc2C)c1
[out] 0.93

[in] Which inhibition reading was recorded for the compound Nc1nccc(-c2c(-c3ccc(F)cc3)ncn2CCCN2CCOCC2)n1 ?
[out] 2.11

[in] Returns the measured inhibition for the input compound. Input: ON=C1CCc2cc(-c3nc(C4CCNCC4)[nH]c3-c3ccncc3)ccc21
[out] -0.74

[in] Recorded inhibition for C[C@@H](Oc1cc(-n2cnc3ccc(OC[C@@H](O)CO)cc32)sc1C(N)=O)c1ccccc1Cl , please?
[out] 2.99

[in] Sample O=S(=O)(CCOCc1ccc(-c2ccc3ncnc(Nc4ccc(OCc5cccc(F)c5)c(Cl)c4)c3c2)o1)c1ccccc1 — what was its inhibition?
[out] 0.82

[in] Fill in: inhibition of [O-][S+]1CCN(Cc2ccc(-c3ccc4ncnc(Nc5ccc(OCc6ccccc6)c(Cl)c5)c4c3)o2)CC1 is ___
[out] 0.7

[in] Which inhibition is reported for this compound? NC(=O)c1cccc(Nc2nccc(Nc3cccc(F)c3)n2)c1
[out] 0.13

[in] What measured inhibition goes with NS(=O)(=O)c1ccc(N/N=C2\C(=O)Nc3ccc(Cl)cc32)cc1 ?
[out] 0.5

[in] Sample Cc1cc(Cl)cc2c1NC(=O)C2=NNc1ccc(S(N)(=O)=O)cc1 — what was its inhibition?
[out] 0.42

[in] Which inhibition is reported for this compound? COc1cccc(-n2ncc3c(N/N=C/c4ccc(S(C)(=O)=O)cc4)ncnc32)c1
[out] 0.09

[in] GET /values?readout=inhibition&item= Nc1ccc(C#Cc2cncnc2Nc2ccc(OCc3cccc(F)c3)c(Cl)c2)cc1
[out] -0.08

[in] # query: inhibition of entry CCS(=O)(=O)c1ccc(OC)c(Nc2nccc(N(C)c3ccc4c(C)n[nH]c4c3)n2)c1
[out] -0.02

[in] # inhibition lookup, item COc1ccc2ncnc(Nc3ccc(OCc4ccccc4)cc3)c2c1
[out] 0.32

[in] What does the data say about its inhibition? Entry: COc1cc(Nc2nccc(-c3cnn4ncccc34)n2)cc(OC)c1
[out] 4.42

[in] Requested read-out: inhibition. Entry: NS(=O)(=O)c1ccc(-c2cc3ccncc3cc2OCc2ccccc2)cc1
[out] -0.2

[in] Which inhibition value belongs to N#Cc1cccc(Nc2nccc(-c3cnn4ncccc34)n2)c1 ?
[out] 4.41

[in] Entry NS(=O)(=O)c1cccc(Nc2cc(-c3ccc(F)cc3)n[nH]2)c1 : reported inhibition = ?
[out] 2.44

[in] Report inhibition for CN1CCN(C(=O)c2ccc(NC(=O)Nc3ccc(N(C)c4ccnc(Nc5ccc(CS(C)(=O)=O)cc5)n4)cc3)cc2)CC1 please.
[out] 0.13

[in] Consider the compound shown here: Cc1nc(-c2ccccc2)n2nc(NCCCN3CCOCC3)ncc12 What is its recorded inhibition?
[out] -0.2

[in] I am curious: what inhibition value has been reported for CCCN1CCCC(c2ccc(Nc3nc(Nc4cc(F)ccc4C(N)=O)c4cc[nH]c4n3)c(OC)c2)C1 (centres undefined) ?
[out] 4.99

[in] Given the compound NS(=O)(=O)c1ccc(Nc2cc(-c3cccc(O)c3)n[nH]2)cc1 , what is its reported inhibition?
[out] -2.75
